Target: SARS2 coronavirus 3CL protease (Severe acute respiratory syndrome coronavirus 2, UniProt P0DTD1)
Test: SARS2 Coronavirus 3CL Protease Assay (FRET)
Format: biochemical
Settings: 5 nM protease pre-incubated with compound 30 minutes; 15 uM peptide substrate; 4 h room temperature; read-out: FRET Potency (nM); IC50 values in the SARS2 3CLPro FRET assay
Readout name: IC50 (nM)
Express the result in nM but write the number alone.

Before answering, review these 4 worked examples.
Compound: CNC(=O)C(=O)[C@H](CCC(C)(F)F)NC(=O)c1cc(Cl)ccc1NC(=O)C(C)C
IC50, nM: 6.2
//
Compound: CNC(=O)C(=O)[C@H](CCC(C)(F)F)NC(=O)c1cc(Cl)cnc1NC(=O)C1CC(F)(F)C1
IC50, nM: 7.5
//
Compound: CNC(=O)C(=O)[C@H](CCC(C)(F)F)NC(=O)c1cc(Cl)ccc1NC(=O)C1CCOCC1
IC50, nM: 8.5
//
Compound: CNC(=O)C(=O)[C@H](CCC(C)F)NC(=O)c1cc(Cl)ccc1NC(=O)OC (single isomer, unassigned) [Example 6D]
IC50, nM: 702

Then there is this compound:
Ask | Annotate the compound CC(F)(F)CC[C@H](NC(=O)c1cc(Cl)ccc1NC(=O)CCC(F)(F)F)C(=O)C(N)=O with its measured IC50.
Reply | 97.5

----------
Target: SARS2 coronavirus 3CL protease (Severe acute respiratory syndrome coronavirus 2)
Assay: SARS2 Coronavirus 3CL Protease Assay (FRET)
Type: biochemical
Details: 5 nM protease pre-incubated with compound 30 minutes; 15 uM peptide substrate; 4 h room temperature; read-out: FRET Potency (nM); IC50 values in the SARS2 3CLPro FRET assay
Catalogue of IC50 values
Express the result in nM but write the number alone.

Compound: CC(F)(F)CC[C@H](NC(=O)c1cc(F)cnc1NC(=O)c1cccc(F)c1)C(=O)C(=O)NC1CC1 [Example 40]
Unit of measurement: nM
Meas value: 41.6
--
Compound: CNC(=O)C(=O)[C@H](CCC(C)(F)F)NC(=O)c1cc(Cl)ccc1NC(=O)c1cccc(C(F)(F)F)n1 [Example 17]
Unit of measurement: nM
Meas value: 8.7
--
Compound: CNC(=O)C(=O)[C@H](CCC(C)(F)F)NC(=O)c1cc(F)ccc1NC(=O)C1(C(F)(F)F)CC1 [Example 42]
Unit of measurement: nM
Meas value: 47
--
Compound: CC(F)(F)CC[C@H](NC(=O)c1cc(C(F)(F)F)cnc1NC(=O)c1cccc(C(F)(F)F)c1)C(=O)C(=O)NC1CC1 [Example 39]
Unit of measurement: nM
Meas value: 40.9
--
Compound: CNC(=O)C(=O)[C@H](CCC(C)(F)F)NC(=O)c1cc(Cl)ccc1NC(=O)C1CC12CC2 (single isomer, unassigned) [Example 33]
Unit of measurement: nM
Meas value: 21.5
--
Compound: CNC(=O)C(=O)[C@H](CCC(C)(F)F)NC(=O)c1cc(Cl)cnc1NC(=O)C12CC(C(F)(F)F)(C1)C2 [Example 2]
Unit of measurement: nM
Meas value: 11.6
--
Compound: CNC(=O)C(=O)[C@H](CCC(C)(F)F)NC(=O)c1cc(F)cnc1NC(=O)c1cccc(C(F)(F)F)c1 [Example 18]
Unit of measurement: nM
Meas value: 9.8
--
Compound: CNC(=O)C(=O)[C@H](CCC(C)(F)F)NC(=O)c1cc(Cl)ccc1NC(=O)C1CC12CCOCC2 (stereo partly drawn) [Example 11]
Unit of measurement: nM
Meas value: 7.7
--
Compound: CC(F)(F)CC[C@H](NC(=O)c1cc(Cl)cnc1NC(=O)C1(C(F)(F)F)CC1)C(=O)C(=O)NC1CC1 [Example 44]
Unit of measurement: nM
Meas value: 50.4
--
Compound: CNC(=O)C(=O)[C@H](CCC(C)(F)F)NC(=O)c1cc(Cl)cnc1NC(=O)OC [Example 56]
Unit of measurement: nM
Meas value: 4.2

Ask | Annotate the compound CNC(=O)C(=O)[C@H](CCC(C)F)NC(=O)c1cc(Cl)ccc1NC(=O)OC (single isomer, unassigned) [Example 6B] with its measured IC50.
Reply | 154

Ask | Annotate the compound CNC(=O)C(=O)[C@H](CCC(C)(F)F)NC(=O)c1cc(Cl)cnc1NC(=O)C12CC(F)(C1)C2 [Example 38] with its measured IC50.
Reply | 40.4

Ask | Annotate the compound COC(=O)N[C@H](C(=O)Nc1ccc(Cl)cc1C(=O)N[C@@H](CCC(C)(F)F)C(=O)C(=O)NC1CC1)C(C)(C)C [Example 3] with its measured IC50.
Reply | 24

Ask | Annotate the compound CNC(=O)C(=O)[C@H](CCC(C)(F)F)NC(=O)c1cc(Cl)cnc1NC(=O)C1(C(F)(F)F)CC1 [Example 36] with its measured IC50.
Reply | 24.4

Ask | Annotate the compound CC(F)(F)CC[C@H](NC(=O)c1cc(Cl)cnc1NC(=O)c1cccc(F)c1)C(=O)C(=O)NC1CC1 [Example 29] with its measured IC50.
Reply | 20.4

----------
Target: SARS2 coronavirus 3CL protease (Severe acute respiratory syndrome coronavirus 2, UniProt P0DTD1)
Test: SARS2 Coronavirus 3CL Protease Assay (FRET)
Type: biochemical
Details: 5 nM protease pre-incubated with compound 30 minutes; 15 uM peptide substrate; 4 h room temperature; read-out: FRET Potency (nM); IC50 values in the SARS2 3CLPro FRET assay
Catalogue of IC50 values
Express the result in nM but write the number alone.

Compound: CNC(=O)C(=O)[C@H](CCC(C)(F)F)NC(=O)c1cc(Cl)ccc1NC(=O)C1CCc2scnc21 (stereo partly drawn) [Example 15]
Unit of measurement: nM
IC50: 8.4
--
Compound: CNC(=O)C(=O)[C@H](CCC(C)(F)F)NC(=O)c1cc(Cl)ccc1NC(=O)C1CC1C(F)(F)F (stereo partly drawn) [Example 32]
Unit of measurement: nM
IC50: 21.3

Ask | Annotate the compound CNC(=O)C(=O)[C@H](CCC(C)(F)F)NC(=O)c1cc(Cl)ccc1NC(=O)C1CC1C(F)(F)F (stereo partly drawn) [Example 48] with its measured IC50.
Reply | 11.3
